Numbers sourced from ChEMBL document CHEMBL1201862.

- Tested on: SN12C
- assay details: NCI tumour cell line growth inhibition, 48 h
The source made the active and inactive calls. No stated cut-off is given here; in the data, active = GI50 up to about 1.1 µM and inactive = higher.
measured parameter: GI50

>  <molecule>
COc1cc2c(c(OC(C)=O)c1OC(C)=O)-c1ccc(SC)c(=O)cc1C(NC(C)=O)CC2 (configuration not stated)

>  <experimental target>
SN12C

>  <result>
4.52 µM (inactive)

$$$$
>  <molecule>
Nc1c(C(=O)Nc2ccccc2O)[n+]([O-])c2ccccc2[n+]1[O-]

>  <experimental target>
SN12C

>  <result>
63.2 µM (inactive)

$$$$
>  <molecule>
O=C(CCCc1cccc2[nH]c3c(c12)CN(Cc1ccccc1)CC3)c1ccc(F)cc1

>  <experimental target>
SN12C

>  <result>
> 100 µM (inactive)

$$$$
>  <molecule>
c1ccc2c(c1)-c1ccccc1C2NC1=NCCO1

>  <experimental target>
SN12C

>  <result>
33.7 µM (inactive)

$$$$
>  <molecule>
O=S(=O)(c1cccc(C(F)(F)F)c1)N1c2ccccc2-n2cccc2C1c1cccnc1 (configuration not stated)

>  <experimental target>
SN12C

>  <result>
> 42.4 µM (inactive)

$$$$
>  <molecule>
Cc1ccc(C(=O)CCC2C(=O)CC(C)(C)CC2=O)cc1

>  <experimental target>
SN12C

>  <result>
> 100 µM (inactive)

$$$$
>  <molecule>
COc1cc2c(cc1O)Cc1c-2[n+](C)cc2cc(OC)c(OC)cc12

>  <experimental target>
SN12C

>  <result>
4.8 µM (inactive)

$$$$
>  <molecule>
CC(C(O)c1ccccc1)[N+](=O)[O-] (configuration not stated)

>  <experimental target>
SN12C

>  <result>
18.1 µM (inactive)

$$$$
>  <molecule>
N#Cc1cc(C#N)c(Cl)nc1N

>  <experimental target>
SN12C

>  <result>
> 10 µM (inactive)

$$$$
>  <molecule>
CS(=O)(=O)c1ccc(-c2cc(-c3ccc(S(C)(=O)=O)cc3)[n+](-c3cc(-c4ccc(S(C)(=O)=O)cc4)c([O-])c(-c4ccc(S(C)(=O)=O)cc4)c3)c(-c3ccc(S(C)(=O)=O)cc3)c2)cc1

>  <experimental target>
SN12C

>  <result>
> 100 µM (inactive)

$$$$
>  <molecule>
O=C1c2ccccc2S[C@@H](O)[C@@H]2CCCN12

>  <experimental target>
SN12C

>  <result>
> 100 µM (inactive)

$$$$
>  <molecule>
O=C1CC(c2ccccc2)n2cccc21 (configuration not stated)

>  <experimental target>
SN12C

>  <result>
> 100 µM (inactive)

$$$$
>  <molecule>
CCn1cc(C(=O)O)c(=O)c2cc(F)c(N3CCNCC3)nc21 [ENOXACIN]

>  <experimental target>
SN12C

>  <result>
68.7 µM (inactive)

$$$$
>  <molecule>
O=S(=O)(O)c1cc(S(=O)(=O)O)c2cc(/N=N/c3c(O)ccc4ccccc34)ccc2c1

>  <experimental target>
SN12C

>  <result>
> 100 µM (inactive)

$$$$
>  <molecule>
CCc1c(Cc2cccc3ccccc23)n2c(nc1=O)SCC2OCCO (configuration not stated)

>  <experimental target>
SN12C

>  <result>
> 100 µM (inactive)

$$$$
>  <molecule>
Cc1cc2ccccc2n2c1nc1ccccc12

>  <experimental target>
SN12C

>  <result>
> 100 µM (inactive)

$$$$
>  <molecule>
Cc1ccc(S(=O)(=O)Oc2coc(CO)cc2=O)cc1

>  <experimental target>
SN12C

>  <result>
12.7 µM (inactive)

$$$$
>  <molecule>
Fc1ccc(C(OCCN2CCC3CCC(C2)N3C/C=C/c2ccco2)c2ccc(F)cc2)cc1 (configuration not stated)

>  <experimental target>
SN12C

>  <result>
11.4 µM (inactive)

$$$$
>  <molecule>
O=c1oc2c(Cl)cc(Cl)cc2cc1-c1cn2c(n1)sc1ccccc12

>  <experimental target>
SN12C

>  <result>
67.8 µM (inactive)

$$$$
>  <molecule>
C/C(=N\NC(N)=S)c1nc2cccnc2[nH]1

>  <experimental target>
SN12C

>  <result>
> 100 µM (inactive)

$$$$
>  <molecule>
CCOC(=O)c1cnc2oc3ccc(O)cc3c2c1-c1ccccc1

>  <experimental target>
SN12C

>  <result>
37.9 µM (inactive)

$$$$
>  <molecule>
C#CCN(N=O)C(=O)ON1C(=O)CCC1=O

>  <experimental target>
SN12C

>  <result>
> 100 µM (inactive)

$$$$

* * *

- Test system: HT-29
- assay details: NCI tumour cell line growth inhibition, 48 h
Activity calls are given as the source filed them. Rule as the data show it: active = GI50 up to about 1.1 µM and inactive = higher.
Entries annotated with measured GI50
measured parameter: GI50

>  <compound>
Nc1ccc(C(=O)CC(N)C(=O)O)cc1O (stereo unspecified)

>  <measured parameter>
GI50

>  <result>
> 100 µM (inactive)

$$$$
>  <compound>
COC1=CC(=O)C(Br)=CC1=O

>  <measured parameter>
GI50

>  <result>
19.2 µM (inactive)

$$$$
>  <compound>
N#Cc1nc(CCC(C(=O)O)N2C(=O)c3ccccc3C2=O)oc1N (stereo unspecified)

>  <measured parameter>
GI50

>  <result>
> 100 µM (inactive)

$$$$
>  <compound>
Cc1c(C(=O)C/C(=N/NC(=O)C[N+](C)(C)C)C(=O)Nc2ccc(Cl)cc2)[n+]([O-])c2ccccc2[n+]1[O-]

>  <measured parameter>
GI50

>  <result>
> 100 µM (inactive)

$$$$
>  <compound>
N#Cc1cc(C#N)c(Cl)nc1N

>  <measured parameter>
GI50

>  <result>
> 10 µM (inactive)

$$$$
>  <compound>
COc1ccc(N[S+]([O-])c2ccc(Cl)cc2)cc1 (stereo unspecified)

>  <measured parameter>
GI50

>  <result>
37.7 µM (inactive)

$$$$

* * *

- System: UO-31
- assay details: NCI tumour cell line growth inhibition, 48 h
Active and inactive are the calls of the source. Rule as the data show it: active = GI50 up to about 1.1 µM and inactive = higher.
Labels: Y = active, N = inactive

>  <molecule>
CN(CC(=O)O)c1ncc2c(n1)-c1ccccc1OC2

>  <answer label>
N

$$$$
>  <molecule>
O=C(O)CNS(=O)(=O)c1ccc(NC(=O)c2ccccc2[N+](=O)[O-])cc1

>  <answer label>
N

$$$$
>  <molecule>
COc1cc2c(c(OC(C)=O)c1OC(C)=O)-c1ccc(SC)c(=O)cc1C(NC(C)=O)CC2 (stereo not given)

>  <answer label>
N

$$$$
>  <molecule>
Nc1ccccc1SC(/C=C/NNC1=NN=C(c2ccccc2)C(c2ccccc2)N1)c1ccccc1 (stereo not given)

>  <answer label>
N

$$$$
>  <molecule>
CC(C)(C)OC(=O)N1[C@@H]2Cc3ccc(N)cc3[C@@]1(C)c1ccccc12

>  <answer label>
N

$$$$
>  <molecule>
O=c1oc2c(Cl)cc(Cl)cc2cc1-c1cn2c(n1)sc1ccccc12

>  <answer label>
N

$$$$
>  <molecule>
CCCc1c[nH]c(-c2ccc(-c3cc(CCC)c(C=O)[nH]3)s2)c1

>  <answer label>
Y

$$$$
>  <molecule>
CCc1nnc2sc(-c3ccc(-c4ccccc4[N+](=O)[O-])o3)nn12

>  <answer label>
N

$$$$
>  <molecule>
O=C(O)CCC(NC(=O)c1ccc(Nc2nc3ccccc3nc2-c2cccs2)cc1)C(=O)O (stereo not given)

>  <answer label>
N

$$$$
>  <molecule>
C#CCN(N=O)C(=O)ON1C(=O)CCC1=O

>  <answer label>
N

$$$$

* * *

- Tested on: CCRF-CEM
- assay details: NCI tumour cell line growth inhibition, 48 h
Activity calls are given as the source filed them. Cut-off read from the data, not from the text of the source: active = GI50 up to about 1.1 µM and inactive = higher.
Entries annotated with measured GI50

>  <compound>
O=C(Nc1nnc(-c2ccccc2)o1)C(SC(=S)N1CCOCC1)c1ccccc1 (stereo not given)

>  <GI50>
5.75 µM (inactive)

$$$$
>  <compound>
CC(CCC(=O)O)[C@H]1CCC2[C@H]3C(CC(=O)[C@@]21C)[C@@]1(C)CCC(O)C[C@H]1C[C@@H]3O (stereo not given in full)

>  <GI50>
> 100 µM (inactive)

$$$$
>  <compound>
CC(C)Oc1c(C2(c3ccccc3)SCCCS2)c(=O)c1=O

>  <GI50>
45.6 µM (inactive)

$$$$
>  <compound>
O=C(CCc1ccc(O)cc1)NCCCNC(=O)CCc1ccc(O)cc1

>  <GI50>
> 100 µM (inactive)

$$$$
>  <compound>
O=NN1C(c2ccccc2)CNC(=O)CC1c1ccccc1 (stereo not given)

>  <GI50>
35.3 µM (inactive)

$$$$
>  <compound>
CC(C)(C)C1CCC2c3c([nH]c4ccccc34)C3C(=O)N(c4ccc([N+](=O)[O-])cc4)C(=O)C3C2C1 (stereo not given)

>  <GI50>
8.51 µM (inactive)

$$$$
>  <compound>
CCOC(=O)c1cnc2oc3ccc(O)cc3c2c1-c1ccccc1

>  <GI50>
16.4 µM (inactive)

$$$$
>  <compound>
COc1ccc(N[S+]([O-])CCCc2ccccc2)cc1 (stereo not given)

>  <GI50>
> 100 µM (inactive)

$$$$
>  <compound>
c1cncc(C2(c3cc4ccccc4[nH]3)COCO2)c1 (stereo not given)

>  <GI50>
10.5 µM (inactive)

$$$$
>  <compound>
O=C(O)C1C2CCC(O2)C1C(=O)NCc1cccnc1 (stereo not given)

>  <GI50>
> 100 µM (inactive)

$$$$
